B1: TPR t1 (parent)
chain: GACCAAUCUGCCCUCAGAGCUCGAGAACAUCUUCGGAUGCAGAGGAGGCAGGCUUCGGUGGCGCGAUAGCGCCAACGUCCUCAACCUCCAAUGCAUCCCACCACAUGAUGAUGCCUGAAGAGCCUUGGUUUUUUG

# Variants of: B1
# testName: polymerase ribozyme fitness, log enrichment relative to wild type (log ratio); higher = more active; in vitro selection for triplet polymerase activity
Binary call on polymerase ribozyme fitness (log ratio): TRUE from -2 upward, FALSE beneath that.

Prompt line: Tell me whether polymerase ribozyme fitness (log ratio) is at least -2 here: C12G G48C G135U
Response line: TRUE

Prompt line: Tell me whether polymerase ribozyme fitness (log ratio) is at least -2 here: G10A G42U C49A G61C C98A U112G U130G
Response line: FALSE

Prompt line: Tell me whether polymerase ribozyme fitness (log ratio) is at least -2 here: U78C A95C C123A
Response line: TRUE

Prompt line: Tell me whether polymerase ribozyme fitness (log ratio) is at least -2 here: A5U A6U A46C C104U C123A
Response line: TRUE

Prompt line: Tell me whether polymerase ribozyme fitness (log ratio) is at least -2 here: C13U U30G U55G A111U
Response line: FALSE
